Target: Recombinant Human NF-kappaB-Inducing Kinase (NIK/MAP3K14) (Homo sapiens)
Method summary: Biological Assay A: inhibition of recombinant human NIK/MAP3K14 activity (MSD, MBP substrate)
Condition parameters: 25 μM ATP, 10 nM NIK/MAP3K14, 1 h at 25° C.; averaged over all batches; read-out: Biochemical (MSD MBP) IC50
Overview of reported IC50 across a group of molecules:
Number first, unit second: that is the form wanted.

Notebook: pull reported IC50 for Recombinant Human NF-kappaB-Inducing Kinase (NIK/MAP3K14) (Homo sapiens), entry `CC(C)(O)C#Cc1cc2c(cn1)c(C#N)cn2-c1ccnc(N)n1`
98 nM

What measured IC50 is associated with `Nc1ncc(F)c(-n2ccc3cnc(C#CC4(O)CCCC4)cc32)n1` on Recombinant Human NF-kappaB-Inducing Kinase (NIK/MAP3K14) (Homo sapiens)?
18 nM

Provide the documented IC50 with Recombinant Human NF-kappaB-Inducing Kinase (NIK/MAP3K14) (Homo sapiens) as the system for `CNC(=O)c1cn(-c2ccnc(N)n2)c2cc(C#CC(C)(C)O)ncc12`
37 nM

# input for lookup
Fill in the recorded IC50 for this molecule, with Recombinant Human NF-kappaB-Inducing Kinase (NIK/MAP3K14) (Homo sapiens) as test system: `CN1CCC(c2cn(-c3nc(N)ncc3F)c3cc(C#CC(C)(C)O)ncc23)CC1`
103 nM

---

Target: Recombinant Human NF-kappaB-Inducing Kinase (NIK/MAP3K14) (Homo sapiens)
Method summary: Biological Assay A: inhibition of recombinant human NIK/MAP3K14 activity (MSD, MBP substrate)
Condition parameters: 25 μM ATP, 10 nM NIK/MAP3K14, 1 h at 25° C.; averaged over all batches; read-out: Biochemical (MSD MBP) IC50
Readout: log10 of IC50 (log10 of the value in nM)
Units before log transform: nM; reported quantity: IC50; transform: log10.

Reference set, count: 5
What reported log10 of IC50 corresponds to `CN(C)C(=O)c1cn(-c2ccnc(N)n2)c2cc(C#CC(C)(C)O)ncc12` on Recombinant Human NF-kappaB-Inducing Kinase (NIK/MAP3K14) (Homo sapiens)?
1.86

Provide value of log10 of IC50 for this record tested with Recombinant Human NF-kappaB-Inducing Kinase (NIK/MAP3K14) (Homo sapiens): CC(O)(C#Cc1cc2c(ccn2-c2ccnc(N)n2)cn1)c1nccs1 (stereo not drawn)
0.38

Give log10 of IC50 (Recombinant Human NF-kappaB-Inducing Kinase (NIK/MAP3K14) (Homo sapiens)) of the following compound: `CC(C)(O)C#Cc1cc2c(cn1)c(CCCO)cn2-c1nc(N)ncc1F`
1.28

For Recombinant Human NF-kappaB-Inducing Kinase (NIK/MAP3K14) (Homo sapiens), provide log10 of IC50 of `CC(C)(O)C#Cc1cc2c(cn1)c(CCO)cn2-c1ccnc(N)n1` please.
0.58

Lookup: log10 of IC50 / Recombinant Human NF-kappaB-Inducing Kinase (NIK/MAP3K14) (Homo sapiens) / `Nc1nccc(-n2ccc3cnc(C#CC4(O)CC4)cc32)n1`
0.59

In the following, a different compound is considered.
What reported log10 of IC50 corresponds to `Nc1ncc(F)c(-n2cc(CCCO)c3cnc(C#CC4(O)CCCC4)cc32)n1` on Recombinant Human NF-kappaB-Inducing Kinase (NIK/MAP3K14) (Homo sapiens)?
0.84

---

Tested on: L-363 cells
Method summary: Biological Assay C: antiproliferative activity on L-363 cells (CellTiter-Glo)
Assay type: cell-based
Condition parameters: Homo sapiens, 72 hr treatment
Measured pEC50 values are reported for all entries that follow.
Bear in mind: pEC50 is minus log10 of a mol/L concentration; give just that figure.

Recall the recorded pEC50 for COCCc1cn(-c2ccnc(N)n2)c2cc(C#CC(C)(C)O)ncc12 [Compound 27] with L-363 cells and state it.
6.71

Please provide the recorded pEC50 for Nc1nccc(-n2ccc3cnc(C#CC4(O)CC4)cc32)n1 [Compound 4] , tested on L-363 cells.
7.21

# query: pEC50 | item CC(C)(O)C#Cc1cc2c(cn1)c(C#N)cn2-c1ccnc(N)n1 [Compound 19] | system: L-363 cells
5.74

Please provide the recorded pEC50 for CC(C)c1cn(-c2ccnc(N)n2)c2cc(C#CC(C)(C)O)ncc12 [Compound 22] , tested on L-363 cells.
7.33

Find the measured pEC50: item CN1CCC(c2cn(-c3ccnc(N)n3)c3cc(C#CC(C)(C)O)ncc23)CC1 [Compound 23] , target or system L-363 cells.
7.04

---
Give L-363 cells pEC50 for CNc1nccc(-n2ccc3cnc(C#CC(C)(C)O)cc32)n1 [Compound 6]
6.11

Fill in the recorded pEC50 for this molecule, with L-363 cells as test system: CN1CCC(c2cn(-c3ccnc(N)n3)c3cc(C#CC(C)(O)c4nccs4)ncc23)CC1 (stereo not shown) [Compound 56]
5.91

Give recorded pEC50 with L-363 cells for the following molecule: CC(CC#N)c1cn(-c2nc(N)ncc2F)c2cc(C#CC(C)(C)O)ncc12 (stereo not shown) [Compound 38]
6.58

Query pEC50 on L-363 cells for COCCCc1cn(-c2nc(N)ncc2F)c2cc(C#CC(C)(C)O)ncc12 [Compound 39]
6.43

Lookup: pEC50 / L-363 cells / CC(C)(O)CCc1cn(-c2nc(N)ncc2F)c2cc(C#CC3(O)CCCC3)ncc12 [Compound 34]
5.65

---

System: JJN-3 cells
Method summary: Biological Assay C: antiproliferative activity on JJN-3 cells (CellTiter-Glo)
Type: cell-based
Condition parameters: Homo sapiens, 72 hr treatment
Readout: pEC50
Note on units: pEC50 is unitless, being -log10 of a concentration expressed in mol/L.

What value of measured pEC50 is listed for CN1CCC(c2cn(-c3ccnc(N)n3)c3cc(C#CC(C)(O)C4CC4)ncc23)CC1 (centres unmarked) [Compound 41] ?
6.51

What pEC50 value was documented for this molecule, CC(CO)c1cn(-c2ccnc(N)n2)c2cc(C#CC(C)(C)O)ncc12 (centres unmarked) [Compound 16] ?
6.80

---

Target: Recombinant Human NF-kappaB-Inducing Kinase (NIK/MAP3K14) (Homo sapiens)
Method summary: Biological Assay A: inhibition of recombinant human NIK/MAP3K14 activity (MSD, MBP substrate)
Condition parameters: 25 μM ATP, 10 nM NIK/MAP3K14, 1 h at 25° C.; averaged over all batches; read-out: Biochemical (MSD MBP) IC50
IC50 strictly less than 60 nM = MET. Otherwise NOT MET.

Worked cases, answers included:
For CC(C)(O)C#Cc1cc2c(cn1)c(CCC#N)cn2-c1ccnc(N)n1 [Compound 36] , is the recorded IC50 below the cut-off of 60 nM?
MET

Hello, is IC50 of the following compound strictly smaller than 60 nM? CNc1nccc(-n2ccc3cnc(C#CC(C)(C)O)cc32)n1 [Compound 6]
MET

Hi there! Is IC50 for CC(O)(C#Cc1cc2c(ccn2-c2nc(N)ncc2Cl)cn1)c1nccs1 (stereo not drawn) [Compound 10] below 60 nM, do you know?
MET

IC50 under 60 nM? Item: CN1CCC(c2cn(-c3ccnc(N)n3)c3cc(C#CC(C)(C)O)ncc23)CC1 [Compound 23]
MET

Does this compound meet the criterion IC50 < 60 nM? CC(C)(O)C#Cc1cc2c(ccn2-c2nc(N)ncc2F)cn1 [Compound 12]
NOT MET

In the record for CCCCOCc1cn(-c2ccnc(N)n2)c2cc(C#CC(C)(C)O)ncc12 [Compound 17] , is IC50 less than 60 nM?
NOT MET

IC50 under 60 nM? Item: CC(C)(O)C#Cc1cc2c(cn1)c(/C=C/C#N)cn2-c1ccnc(N)n1 [Compound 35]
NOT MET

Bench note: check whether CC(C)c1cn(-c2ccnc(N)n2)c2cc(C#CC(C)(C)O)ncc12 [Compound 22] shows IC50 below 60 nM
MET

Okay, next one:
Report whether reported IC50 is lower than 60 nM (strictly) for CC(C)(O)C#Cc1cc2c(cn1)c(CCC(C)(C)O)cn2-c1nc(N)ncc1F [Compound 33]
MET

---

Target: Recombinant Human NF-kappaB-Inducing Kinase (NIK/MAP3K14) (Homo sapiens, UniProt Q99558)
Sequence (Q99558 whole entry): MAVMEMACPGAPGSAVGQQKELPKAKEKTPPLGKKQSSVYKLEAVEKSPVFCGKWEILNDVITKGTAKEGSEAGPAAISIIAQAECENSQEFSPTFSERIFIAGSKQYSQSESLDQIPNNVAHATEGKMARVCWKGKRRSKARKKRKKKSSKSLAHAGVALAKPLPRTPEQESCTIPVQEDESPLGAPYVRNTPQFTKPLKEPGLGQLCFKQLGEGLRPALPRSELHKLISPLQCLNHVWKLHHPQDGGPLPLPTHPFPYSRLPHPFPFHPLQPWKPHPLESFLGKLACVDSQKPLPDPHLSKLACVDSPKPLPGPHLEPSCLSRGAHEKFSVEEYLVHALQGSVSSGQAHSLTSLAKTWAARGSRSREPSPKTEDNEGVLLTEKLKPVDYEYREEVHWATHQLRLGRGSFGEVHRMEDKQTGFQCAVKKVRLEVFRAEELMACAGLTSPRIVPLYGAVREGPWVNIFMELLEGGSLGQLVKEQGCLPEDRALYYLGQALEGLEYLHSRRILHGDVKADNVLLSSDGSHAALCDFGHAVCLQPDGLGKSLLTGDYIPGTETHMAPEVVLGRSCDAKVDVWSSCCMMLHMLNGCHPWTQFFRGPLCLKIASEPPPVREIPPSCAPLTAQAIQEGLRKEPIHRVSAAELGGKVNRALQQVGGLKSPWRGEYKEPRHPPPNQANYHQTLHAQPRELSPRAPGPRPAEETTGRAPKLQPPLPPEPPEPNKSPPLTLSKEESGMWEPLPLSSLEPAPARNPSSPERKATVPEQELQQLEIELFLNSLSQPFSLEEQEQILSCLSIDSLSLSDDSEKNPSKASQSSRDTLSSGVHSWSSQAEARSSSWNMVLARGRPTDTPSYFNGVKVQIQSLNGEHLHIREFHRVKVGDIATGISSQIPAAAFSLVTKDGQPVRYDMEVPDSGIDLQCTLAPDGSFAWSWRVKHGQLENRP
Method summary: Biological Assay A2: inhibition of auto-phosphorylation of recombinant human NIK/MAP3K14 (AlphaScreen)
Format: biochemical
Condition parameters: 25 microM ATP, 0.2 nM NIK/MAP3K14, 1 h at 25° C., averaged over all batches, read-out: Alpha-Screen IC50
Readout: pIC50
Here pIC50 is given on a logarithmic scale as minus log10 of the concentration in mol/L.

Request the reported pIC50 associated with `Nc1ncc(Cl)c(-n2ccc3cnc(C#CC4(O)CC4)cc32)n1`
7.62

Next:
Quick one: pIC50 for `CC(C)c1cn(-c2ccnc(N)n2)c2cc(C#CC(C)(C)O)ncc12` ?
7.80

Name the recorded pIC50 for `[2H]C([2H])([2H])C(O)(C#Cc1cc2c(cn1)c(C1CCN(CCC(F)(F)F)CC1)cn2-c1nc(N)ncc1F)C([2H])([2H])[2H]` .
7.16

# pIC50 lookup, item `CNc1nccc(-n2ccc3cnc(C#CC(C)(C)O)cc32)n1`
7.10
